Tested on: P. falciparum stage V gametocytes
Design: BacTiter-Glo ATP luminescence viability of purified stage V gametocytes in 384-well plates, per cent inhibition versus DMSO
details: 48 h, 5 µM; inhibitor
The campaign covered roughly 13,000 compounds. About 3,200 (25%) showed an effect of 50% or more. The list shows a part of the results.
valueType: % Inhibition (%)
Please give a number only; it is taken to be in %.

Worked cases, % Inhibition given:
Qu. For P. falciparum stage V gametocytes, give the measured % Inhibition of the entry `Cc1noc(-c2ccc(NC[C@@H](C)NC[C@H](O)c3cccc(Cl)c3)cc2)n1`
Ans. 14.57

Qu. For P. falciparum stage V gametocytes, give the measured % Inhibition of the entry `Clc1ccc(CNCC2CCN(CC3CCCCC3)CC2)cc1Cl`
Ans. -4.599

Qu. For P. falciparum stage V gametocytes, give the measured % Inhibition of the entry `O=C(Nc1cccc(CN2CCCN(Cc3ccc(O)cc3)CC2)c1)c1cc2ccccc2s1`
Ans. 32.43

Qu. For P. falciparum stage V gametocytes, give the measured % Inhibition of the entry `Cc1ccc(NC(=O)c2ccc(CN3CCCN(Cc4cccc(O)c4)CC3)cc2)cc1F`
Ans. 3.853

Qu. For P. falciparum stage V gametocytes, give the measured % Inhibition of the entry `CCOc1cc(C=NNc2nc(C)cc(-n3nc(C)cc3C)n2)ccc1O`
Ans. 92.61

***
Qu. For P. falciparum stage V gametocytes, give the measured % Inhibition of the entry `COc1ccc(CN2CCCN(Cc3cccc(NC(=O)c4cc5ccccc5s4)c3)CC2)cc1`
Ans. -63.54

Qu. For P. falciparum stage V gametocytes, give the measured % Inhibition of the entry `CCNC(=O)Nc1cccc(-c2ccc(-c3nc4cccc(C)c4[nH]3)s2)c1`
Ans. -0.5138

###

Test system: P. falciparum stage V gametocytes
Parameters: BacTiter-Glo ATP luminescence viability of purified stage V gametocytes in 384-well plates, per cent inhibition versus DMSO
details: 48 h, 5 µM; inhibitor
Out of some 13,000 compounds screened, about 3,200 (25%) showed an effect of 50% or more. Some of the results follow.
Label No if % Inhibition falls below -20%; label Yes in every other case.

Consider the worked cases shown below.
Qu. Answer whether % Inhibition of `Cc1cccc2nc(-c3ccc(-c4ccc(CNCc5cnn(-c6ccccc6)n5)cc4)cc3)[nH]c12.O=C(O)C(F)(F)F` is greater than or equal to -20%.
Ans. Yes

Qu. Answer whether % Inhibition of `COc1ccc(C)c(Nc2ccnc(Nc3ccc(-c4cnc[nH]4)cc3)n2)c1` is greater than or equal to -20%.
Ans. No

***
Qu. Answer whether % Inhibition of CCC(CSC1CCCCC1)N(C)CCN(C)C(CC)CSC1CCCCC1 (stereo not shown) is greater than or equal to -20%.
Ans. Yes

Qu. Answer whether % Inhibition of CC1CN(c2cnn(C/C=C/c3ccc(NC(=O)c4ccc(Cl)cc4)cc3)c(=O)c2Cl)CC(C)N1 (stereo not shown) is greater than or equal to -20%.
Ans. Yes

Qu. Answer whether % Inhibition of CC1CN(c2cnn(Cc3cccc(NC(=O)Nc4cccc(C(F)(F)F)c4)c3)c(=O)c2Cl)CC(C)N1 (stereo not shown) is greater than or equal to -20%.
Ans. Yes

Qu. Answer whether % Inhibition of CC1CN(c2cnn(Cc3cccc(NC(=O)Nc4ccc(F)cc4[N+](=O)[O-])c3)c(=O)c2Cl)CC(C)N1 (stereo not shown) is greater than or equal to -20%.
Ans. Yes
